# test-method-notes: qHTS assay to identify small molecule agonists of the estrogen related receptor signaling pathway with the pleiotropic PPARgamma coactivator (PGC) from Tox21 10K library (AID 1224842); note: nearly all actives have a fitted effect of over 15% in size
# particulars: PGC/ERR reporter cell line, luciferase ONE-Glo, 18 h; series mostly up to 92.4 µM
Inconclusive results are not listed. Active and inactive are the calls of the source. Calls come from the whole dose curve; as a rule, active = well fitted activation curve with a large enough effect in the repeat runs; inconclusive = weak or mixed curves, or effect the other way; inactive = no such curve, though single readings can be large or run the other way.
The reply should be one of these categories: active, inactive

Completed entries (count: 8):
# compound, class-name
measured = [
    ("O=S(=O)(Oc1ccc(Cl)cc1)c1ccccc1", "inactive"),
    ("CN1C[C@H]2c3ccccc3Oc3ccc(Cl)cc3[C@@H]2C1", "inactive"),
    ("CCCCCCc1ccc(-c2ccc(C#N)cc2)cc1", "inactive"),
    ("C=CC(=O)OCCOCCOC(=O)C=C", "active"),
    ("C=CCOc1ccccc1OCC(O)CNC(C)C (configuration not stated)", "inactive"),
    ("COc1ccc(C)cc1[N+](=O)[O-]", "inactive"),
    ("CCCCCCOC(=O)NC(=N)c1ccc(NCc2nc3cc(C(=O)N(CCC(=O)OCC)c4ccccn4)ccc3n2C)cc1", "inactive"),
    ("Nc1ccc([N+](=O)[O-])c(C(F)(F)F)c1", "inactive"),
]

Could you kindly confirm the outcome this assay logged for CCCn1cnc2c1c(=O)n(CCCCC(C)=O)c(=O)n2C ?
inactive

Status in this test for Cc1ncc(CO)c(C=O)c1O ?
inactive

Each compound tested received a call. Report the one for NS(=O)(=O)c1ccc(N2CCCCS2(=O)=O)cc1 .
inactive

Write down the call the test reported for this compound. Item: CCCOC(C(=O)OC1CCN(C)CC1)(c1ccccc1)c1ccccc1
inactive

----------
# tgt: Nuclear receptor subfamily 1 group I member 2 (Homo sapiens) (UniProt O75469)
# test-method-notes: CYP3A4 induction through human pregnane X receptor (PXR) by small molecules, qHTS assay (AID 1346984); note: nearly all actives have a fitted effect of over 40% in size
# particulars: DPX-2 HepG2 PXR, CYP3A4-luciferin luminescence, 24 h; series mostly up to 46.1 µM
Results filed as inconclusive are left out. Calls of active or inactive are those of the source. Calls come from the whole dose curve; as a rule, active = well fitted activation curve with a large enough effect in the repeat runs; inconclusive = weak or mixed curves; inactive = no such curve, though single readings can be large or run the other way.
Would you mind answering with one of these outcomes? T for active, F for inactive

Recorded results for 5 molecules are shown here.
# molecule, class-name
measured = [
    ("COc1ccc(-c2nc3ccc(C4=NNC(=O)CC4C)cc3[nH]2)cc1 (stereo not drawn)", "F"),
    ("Cc1cccc(C)c1NC(=O)CN(CC(=O)O)CC(=O)O", "F"),
    ("COc1cc2nc(N(C)CCCNC(=O)C3CCCO3)nc(N)c2cc1OC (stereo not drawn)", "F"),
    ("CCCOC(C(=O)OC1CCN(C)CC1)(c1ccccc1)c1ccccc1", "T"),
    ("CCCCC1=NC2(CCCC2)C(=O)N1Cc1ccc(-c2ccccc2-c2nn[nH]n2)cc1", "F"),
]

In this assay, the call recorded for C[N+](C)(C)CCOC(=O)CCC(=O)OCC[N+](C)(C)C was what?
F

Kindly provide the recorded test outcome for the following molecule: C#Cc1cccc(Nc2ncnc3cc(OCCOC)c(OCCOC)cc23)c1
F

Kindly provide the recorded test outcome for the following molecule: O=C1C(O)=C(O)C(=O)C(O)=C1O
F

Entry CCCCC : call = ?
F

Test call for this molecule, please: O=S(c1cc(Cl)cc(Cl)c1O)c1cc(Cl)cc(Cl)c1O
F

Dear all, I need the recorded test outcome for CNCCCN1c2ccccc2CCc2ccccc21 , thank you.
F
